study.system: T1, Recombinant Human DLL4 (human, UniProt Q9NR61 27-524)
T1 construct: also called delta-like protein 4; rHuman DLL4
protocol.details: ELISA, DLL4 coated on plate, Fab at 100 nM, absorbance at 450 nm minus blank
endpoint: ELISA Signal-blank (100 nM Fab)

Known results for binders:
binder	ELISA Signal-blank (100 nM Fab)
Fab VH5-51_IGHD5-18*01>3_IGHJ4*01 G100K/G104T G24T/S28R/G35V (H:KT TRV) & V3-4_IGLJ1*01 T31A (Fab, V domains shown, Fab; expressed in E. coli with CH1 (Plasmid A, His6 and Flag tags) and lambda CL (Plasmid E); also called H:KT TRV & T31A) VH: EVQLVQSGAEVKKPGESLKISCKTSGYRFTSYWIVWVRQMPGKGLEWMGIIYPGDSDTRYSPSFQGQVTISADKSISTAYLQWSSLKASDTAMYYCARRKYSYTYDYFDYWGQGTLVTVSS VL: QTVVTQEPSFSVSPGGTVTLTCGLSSGSVSASYYPSWYQQTPGQAPRTLIYSTNTRSSGVPDRFSGSILGNKAALTITGAQADDESDYYCVLYMGSGISYVFGTGTKVTVL	0.552
Fab VH5-51_IGHD5-18*01>3_IGHJ4*01 G100K/G104T G24T/S28R/G35V (H:KT TRV) & V3-4_IGLJ1*01 G95A (Fab, V domains shown, Fab; expressed in E. coli with CH1 (Plasmid A, His6 and Flag tags) and lambda CL (Plasmid E); also called H:KT TRV & G95A) VH: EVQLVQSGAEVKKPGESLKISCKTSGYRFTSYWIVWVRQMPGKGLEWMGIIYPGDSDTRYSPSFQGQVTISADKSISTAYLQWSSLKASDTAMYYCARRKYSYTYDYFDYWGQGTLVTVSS VL: QTVVTQEPSFSVSPGGTVTLTCGLSSGSVSTSYYPSWYQQTPGQAPRTLIYSTNTRSSGVPDRFSGSILGNKAALTITGAQADDESDYYCVLYMASGISYVFGTGTKVTVL	0.216
Fab VH5-51_IGHD5-18*01>3_IGHJ4*01 G100K/G104T G24T/S28R/G35V (H:KT TRV) & V3-4_IGLJ1*01 Y93A (Fab, V domains shown, Fab; expressed in E. coli with CH1 (Plasmid A, His6 and Flag tags) and lambda CL (Plasmid E); also called H:KT TRV & Y93A) VH: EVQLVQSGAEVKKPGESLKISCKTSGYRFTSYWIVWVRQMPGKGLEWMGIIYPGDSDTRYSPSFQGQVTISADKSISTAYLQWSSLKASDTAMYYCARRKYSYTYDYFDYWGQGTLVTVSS VL: QTVVTQEPSFSVSPGGTVTLTCGLSSGSVSTSYYPSWYQQTPGQAPRTLIYSTNTRSSGVPDRFSGSILGNKAALTITGAQADDESDYYCVLAMGSGISYVFGTGTKVTVL	0.185

Please state ELISA Signal-blank (100 nM Fab) for every binder in the list that follows.
1. Fab VH5-51_IGHD5-18*01>3_IGHJ4*01 G100K/G104T G24T/S28R/G35V (H:KT TRV) & V3-4_IGLJ1*01 T53A (Fab, V domains shown, Fab; expressed in E. coli with CH1 (Plasmid A, His6 and Flag tags) and lambda CL (Plasmid E); also called H:KT TRV & T53A) VH: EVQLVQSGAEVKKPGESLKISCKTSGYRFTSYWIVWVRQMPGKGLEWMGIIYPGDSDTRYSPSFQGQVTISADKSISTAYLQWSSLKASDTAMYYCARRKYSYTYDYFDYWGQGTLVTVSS VL: QTVVTQEPSFSVSPGGTVTLTCGLSSGSVSTSYYPSWYQQTPGQAPRTLIYSANTRSSGVPDRFSGSILGNKAALTITGAQADDESDYYCVLYMGSGISYVFGTGTKVTVL
2. Fab VH5-51_IGHD5-18*01>3_IGHJ4*01 G100K/G104T G24T/S28R/G35V (H:KT TRV) & V3-4_IGLJ1*01 S52A (Fab, V domains shown, Fab; expressed in E. coli with CH1 (Plasmid A, His6 and Flag tags) and lambda CL (Plasmid E); also called H:KT TRV & S52A) VH: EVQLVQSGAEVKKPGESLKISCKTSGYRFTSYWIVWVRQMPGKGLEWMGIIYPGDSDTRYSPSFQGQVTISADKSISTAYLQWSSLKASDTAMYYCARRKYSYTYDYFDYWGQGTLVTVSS VL: QTVVTQEPSFSVSPGGTVTLTCGLSSGSVSTSYYPSWYQQTPGQAPRTLIYATNTRSSGVPDRFSGSILGNKAALTITGAQADDESDYYCVLYMGSGISYVFGTGTKVTVL

[0.532, 0.574]
